- Experimental System: T1, HLA-DR1 (HLA-DRB1*01:01) (human)
- T1 construct: mature; class II HLA molecule purified from homozygous EBV-transformed lymphoblastoid cells with antibody L243
- Assay Text: competition ELISA vs biotin-HA 306-318;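 note: HLA and competitor incubated 24 to 72 h, maximal signal taken from wells lacking competitor, background from wells lacking HLA molecule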
No end group written: not given here.
Property Measured: relative affinity

INSERT INTO assay_data (binder, assay_result) VALUES
  ('KDIYAYLRQLEEEQA-NH2 [CCNB1 172-186]', 42),
  ('GEWTPTLQHYLSYTE-NH2 [CCNB1 359-373]', 548),
  ('LALKILDNGEWTPTL-NH2 [CCNB1 351-365]', 648);

Values were extracted from patent US20180086804A1.
